tested on: tet-on competent MLL/AF9+Nras AML; assay: Pooled negative selection RNAi screening (deep sequencing); assay type: cell-based, mouse; settings: deep sequencing reads, On Dox compared to T0
// reported Fold depletion in AML per item
Hi! Could you send only the number? It should be in Fold, unit omitted.

stdin: Item AU018778.350: shRNA, SEQ ID NO: 94 (nucleic acid) TGCTGTTGACAGTGAGCGCCTGAAGATTGCCTGTACCTAATAGTGAAGCCACAGATGTATTAGGTACAGGCAATCTTCAGATGCCTACTGCCTCGGA has what recorded Fold depletion in AML?
stdout: 8.45

Continue with the molecule presented below.
stdin: Item Slc12a5.3582: shRNA, SEQ ID NO: 179 (nucleic acid) TGCTGTTGACAGTGAGCGAAACGAGGTCATCGTGAATAAATAGTGAAGCCACAGATGTATTTATTCACGATGACCTCGTTCTGCCTACTGCCTCGGA has what recorded Fold depletion in AML?
stdout: 12.58
